Target: Fatty-acid amide hydrolase 1 (Rattus norvegicus)
Sequence (P97612 whole entry): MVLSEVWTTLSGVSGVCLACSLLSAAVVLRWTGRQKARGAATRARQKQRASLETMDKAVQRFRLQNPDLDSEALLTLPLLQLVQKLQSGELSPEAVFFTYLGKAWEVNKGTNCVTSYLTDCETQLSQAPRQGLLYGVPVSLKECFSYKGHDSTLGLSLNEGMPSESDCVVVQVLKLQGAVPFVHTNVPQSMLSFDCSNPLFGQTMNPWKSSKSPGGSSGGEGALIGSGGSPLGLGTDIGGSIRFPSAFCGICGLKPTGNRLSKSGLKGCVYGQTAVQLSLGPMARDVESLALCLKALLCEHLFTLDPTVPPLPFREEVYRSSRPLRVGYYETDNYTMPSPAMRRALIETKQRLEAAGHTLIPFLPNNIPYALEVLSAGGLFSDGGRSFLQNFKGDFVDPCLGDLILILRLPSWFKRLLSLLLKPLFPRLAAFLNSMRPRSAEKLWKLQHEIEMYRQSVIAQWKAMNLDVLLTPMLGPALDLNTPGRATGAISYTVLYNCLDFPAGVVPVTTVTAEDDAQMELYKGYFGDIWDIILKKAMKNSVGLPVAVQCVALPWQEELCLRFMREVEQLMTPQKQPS
Assay: Inhibition of rat FAAH assessed as kinact/Ki ratio incubated for 1 min in presence of glutamate dehydrogenase by 384-well format microplate reader assay
experimental-endpoint: IC50 (nM)

>>> df
                                smiles_code  experimental_endpoint  recorded_value
0  O=C(Nc1cccnn1)N1CCC(=Cc2cccc(Oc3ccc(C(F)(F)F)cn3)c2)CC1                   IC50            43.1
